Values compiled from patent US5948886A.

# target-or-system: Elastase (Homo sapiens)
# Construct: Elastase is isolated from human sputum; from tissue; host or cells: human sputum
# Sequence (P08246 30-267): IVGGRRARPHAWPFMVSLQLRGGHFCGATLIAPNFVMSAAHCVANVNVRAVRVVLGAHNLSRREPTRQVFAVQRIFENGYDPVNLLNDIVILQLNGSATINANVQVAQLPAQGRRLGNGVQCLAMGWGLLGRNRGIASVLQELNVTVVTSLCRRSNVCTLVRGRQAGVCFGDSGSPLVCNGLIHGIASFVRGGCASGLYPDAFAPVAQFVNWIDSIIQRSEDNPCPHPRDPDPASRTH
# test-method-notes: In vitro assay of elastase in the presence of the prodrug and porcine liver esterase
# Type: biochemical
# condition-info: drug liberated from MDL 105,565 by esterase in the assay; read-out: Ki of the liberated drug, calculated

{"columns": ["compound", "target-or-system", "Ki (nM)"],
 "data": [
  ["COC(=O)C(=O)C(NC(=O)C1CCCN1C(=O)C(NC(=O)c1ccc(C(=O)NS(=O)(=O)c2ccc(Cl)cc2)cc1)C(C)C)C(C)C (stereo not shown) [liberated drug, reference compound]", "Elastase (Homo sapiens)", 13]
]}
